meta.source: the supplement of paper PMC10724198

System: Saccharomyces cerevisiae
Assay: protein stability index of tFT-peptide fusion (C-terminal peptide) (PSI (0-1 scale)); higher = more stable (slower turnover)
Details: genetic background: wild type; temperature: 30 C
I would appreciate it if you labelled entries true (1) when protein stability index is 0.7 or higher, otherwise false (0).

construct_sequence	assigned_class
KKKKKQIKKQKK	false (0)
RYLAEKAVLTHN	false (0)
MACLRLTVYVMG	false (0)
PVYAYYVPCAPR	false (0)
RPFLSVLPLFFP	true (1)
VGMCVGEVVAIV	false (0)
GPGTYGASLSGR	false (0)
GVDAGGVFSRLC	false (0)
GKKRFENKKEKY	true (1)
FSNLVSAHFGLL	false (0)
VYFRMGFMRVCV	false (0)
GMVRVRSIATHG	false (0)
KSEIRDGRFPSC	false (0)
VGFISRIKSLYV	false (0)
EKKKKKKEEREK	true (1)
RFLVFLLNFISI	false (0)
PSPLPSPPPPPP	false (0)
CSSLPPCPYSLP	false (0)
TNKKKNRNKKAK	false (0)
KQLEKYKDIRRK	false (0)
CKLDVMSRSFVG	false (0)
CRSNISDLFSSV	true (1)
ACVRLVLCVCRV	false (0)
GICLLRLDTFNI	false (0)
PFVIFHSCFSLV	false (0)
CWASTFGLGFLP	true (1)
GLMAIKVNLNHS	false (0)
LLSCLDILFFFI	false (0)
SLPPPSPLPPPV	false (0)
VRLHIAMWLRRC	false (0)
VGCGCVRGYWFG	true (1)
GACILARGVRRR	false (0)
SVRCPPLSPRPP	false (0)
FLPRGPLPPSPF	false (0)
SLPFFPPRSPPS	true (1)
KSLSEKSKEKGS	false (0)
KKKKQKKNKKKK	false (0)
KNKIRLLNKTSK	false (0)
KIINKKKKRKKN	false (0)
SLDALVDFWSRG	true (1)
LRLLLLVLPTCF	false (0)
LTSATSSGPPHP	true (1)
LLRSCLTLFARR	false (0)
SENEGEGIYVRM	false (0)
CLRGLLVMLYQR	false (0)
KKKIKNKTNEEK	false (0)
HLFYASCNSSAS	false (0)
YKKKKKKKNNKK	false (0)
PSSTLRLSPSSL	true (1)
PFSSVFNPGVLS	false (0)
VSSRWGGWWNGV	false (0)
HPPTLPPLPIPP	false (0)
PPPPPPPPPSFP	false (0)
IIVLNIGSVIFC	false (0)

----------
Listed next: entries and their corresponding protein stability index.
Tested on: Saccharomyces cerevisiae
Assay: protein stability index of tFT-peptide fusion (C-terminal peptide) (PSI (0-1 scale)); higher = more stable (slower turnover)
Conditions: genetic background: cdc53-1; temperature: 37 C

construct_sequence	experimental_system	protein stability index
YFFFLFFLLPPF	Saccharomyces cerevisiae	0.477
WFLMVILYTVYG	Saccharomyces cerevisiae	0.2
GVSRRWFSLRCI	Saccharomyces cerevisiae	0.717
CMYTILRHKINN	Saccharomyces cerevisiae	0.621
ILFVCVCVLHVG	Saccharomyces cerevisiae	0.198
VCLVFVVRPCIR	Saccharomyces cerevisiae	0.578
SGWGGGTWVKMG	Saccharomyces cerevisiae	0.721
FSYLSFLPSLAA	Saccharomyces cerevisiae	0.562
SCFRFFFLFLFF	Saccharomyces cerevisiae	0.197
AVSFVTLSIMVM	Saccharomyces cerevisiae	0.0958
FVVQSLNQMRLN	Saccharomyces cerevisiae	0.727
DFWMLLFGIIFA	Saccharomyces cerevisiae	0.521
IWVWMLSVWLGG	Saccharomyces cerevisiae	0.373
YCAMVAVGVVGG	Saccharomyces cerevisiae	0.506
FVCLCGFLQVLS	Saccharomyces cerevisiae	0.564
VSIVLHSVPCGG	Saccharomyces cerevisiae	0.521
FFCLFCLSCWVL	Saccharomyces cerevisiae	0.422
YVFSPLSCWASV	Saccharomyces cerevisiae	0.74
SFLVFLYFFMVF	Saccharomyces cerevisiae	0.429
GPVRTEFWLYVW	Saccharomyces cerevisiae	0.704
WLSFAIECGMVW	Saccharomyces cerevisiae	0.28
VCFCFLRFLSLL	Saccharomyces cerevisiae	0.685
AFTFLLCWLFGV	Saccharomyces cerevisiae	0.671
HGVYSVLRFFFC	Saccharomyces cerevisiae	0.723
FQWILYIAKRVV	Saccharomyces cerevisiae	0.671
RRRRHVDHSTQR	Saccharomyces cerevisiae	0.572
WRGALHPTPVAA	Saccharomyces cerevisiae	0.282
PWAHIRTVQTYV	Saccharomyces cerevisiae	0.716
VPQMLVSVCLSN	Saccharomyces cerevisiae	0.376
LRVPCPPCCVFV	Saccharomyces cerevisiae	0.699
GFFLCTCIRFWV	Saccharomyces cerevisiae	0.518
LDTTSRSRAKIS	Saccharomyces cerevisiae	0.677
LLSLPTTNLMAF	Saccharomyces cerevisiae	0.611
CQVSEWIRYRFL	Saccharomyces cerevisiae	0.743
SYVFEFIVSVVF	Saccharomyces cerevisiae	0.347
LLVIAIKVPANS	Saccharomyces cerevisiae	0.485
FYPFHVFCLLIF	Saccharomyces cerevisiae	0.177
TPRQYVVSLSLC	Saccharomyces cerevisiae	0.657
RYLCLTPALYLS	Saccharomyces cerevisiae	0.559
GGIRLRVRFFVI	Saccharomyces cerevisiae	0.658
VFFVTSCWVFRG	Saccharomyces cerevisiae	0.574
FIMHRIFMALVI	Saccharomyces cerevisiae	0.415
VIGLLSYFLVYL	Saccharomyces cerevisiae	0.513
FPWGRIFLRLRT	Saccharomyces cerevisiae	0.347
MQFVALFLVGLL	Saccharomyces cerevisiae	0.509
VVLVLLCIGRLL	Saccharomyces cerevisiae	0.511
LFSPLKGILSVM	Saccharomyces cerevisiae	0.664
GRGGLRVVVWLV	Saccharomyces cerevisiae	0.642
TVIVCCHLEVVY	Saccharomyces cerevisiae	0.0367
GLRFFVSSLLCR	Saccharomyces cerevisiae	0.548
DLRFAWLLSCFS	Saccharomyces cerevisiae	0.47
CFATTCLRCKWV	Saccharomyces cerevisiae	0.738
GFPFLFILYFLC	Saccharomyces cerevisiae	0.257
TDFICLLWLLHW	Saccharomyces cerevisiae	0.535
VERKLMTIYIKI	Saccharomyces cerevisiae	0.648
LLLLFPSPLFIR	Saccharomyces cerevisiae	0.0999
HRNILSIIIKNL	Saccharomyces cerevisiae	0.681
VNILFCLFFLLV	Saccharomyces cerevisiae	0.554
NKYSMQNVLKSF	Saccharomyces cerevisiae	0.711
VGVCGSSGRVGG	Saccharomyces cerevisiae	0.731
LLAWLHTVQRVG	Saccharomyces cerevisiae	0.753
LWFRCVRMQACR	Saccharomyces cerevisiae	0.516
CPVSRHLLVLYW	Saccharomyces cerevisiae	0.442
VRLHIAMWLRRC	Saccharomyces cerevisiae	0.271
FFSFLFLLLFGA	Saccharomyces cerevisiae	0.643
SWIKRYEITCIL	Saccharomyces cerevisiae	0.568
RLINCIYVLMLP	Saccharomyces cerevisiae	0.569
LWGVGFLFVLVG	Saccharomyces cerevisiae	0.268
GRGLGHWWTVRT	Saccharomyces cerevisiae	0.756
VLLSFVFCGWVR	Saccharomyces cerevisiae	0.484
PFAFLSLVLLLP	Saccharomyces cerevisiae	0.51
PPSLFLLLKVFF	Saccharomyces cerevisiae	0.362
LWLFIVCWVGCV	Saccharomyces cerevisiae	0.301
HINRTIWARYQV	Saccharomyces cerevisiae	0.742
GYRFSILSILRV	Saccharomyces cerevisiae	0.611
CAGLLSVSFWLF	Saccharomyces cerevisiae	0.589
WGGIASLVASAA	Saccharomyces cerevisiae	0.437
LSVSEILAVKCG	Saccharomyces cerevisiae	0.584
SFLLGCCWLVLC	Saccharomyces cerevisiae	0.309
LFWFRGTIVTPR	Saccharomyces cerevisiae	0.726
SCYDYVILLQLS	Saccharomyces cerevisiae	0.655
LILRVLFLFEPC	Saccharomyces cerevisiae	0.484

----------
Test system: Saccharomyces cerevisiae
Assay: protein stability index of tFT-peptide fusion (C-terminal peptide) (PSI (0-1 scale)); higher = more stable (slower turnover)
Conditions: genetic background: wild type; temperature: 30 C
protein stability index for assorted sequences
metric_name: protein stability index

construct_sequence	recorded_number
TKNNYKKKKTKT	0.682
SCIFRGNPFLLL	0.711
KIDKKSKKKKEI	0.684
PPPLTPPTCLPP	0.644
SPPSPSPSPRPL	0.669
FRFSSLLYILLS	0.0959
PPPPPRPPRLLS	0.651
PLSSHIPVHEAR	0.718
AFFRCKCYVGTP	0.511
CAAYIYLGGSFF	0.707
GDIRLTGLSIVS	0.638
GVIKLTQEKAST	0.679
PPPPPPPPPLFP	0.703
KKGKEKEVKKKK	0.646
RSLRSSRSGTLA	0.848
GEVGAVVGESFV	0.622
GNKKRDSDKIKE	0.605
SPSLPHAPSRPP	0.607
ASQSFSFITFTY	0.645

----------
System: Saccharomyces cerevisiae
Experiment: protein stability index of tFT-peptide fusion (C-terminal peptide) (PSI (0-1 scale)); higher = more stable (slower turnover)
Settings: genetic background: wild type; temperature: 30 C
metric_name: protein stability index

construct_sequence	experimental_system	recorded_number
QIIYYIARSKGL [MEC3 C-terminal 12 aa]	Saccharomyces cerevisiae	0.668
NDGTSANSACSC [VPS21 C-terminal 12 aa]	Saccharomyces cerevisiae	0.691
TSCNLNSSVVRS [YOR186C-A C-terminal 12 aa]	Saccharomyces cerevisiae	0.695
RLGNLENIKIPK [AIM4 C-terminal 12 aa]	Saccharomyces cerevisiae	0.696
KHKNYLSFNFTK [YLL065W C-terminal 12 aa]	Saccharomyces cerevisiae	0.69
KKGLTRSVKFKN [SAS10 C-terminal 12 aa]	Saccharomyces cerevisiae	0.667
EKHSFSTTQQVV [NRT1 C-terminal 12 aa]	Saccharomyces cerevisiae	0.664
HPRLCVFSCMMI [YJR128W C-terminal 12 aa]	Saccharomyces cerevisiae	0.67
DNKPKLSDVEKD [GEA2 C-terminal 12 aa]	Saccharomyces cerevisiae	0.707
FVAEAYLDEFVY [ARC19 C-terminal 12 aa]	Saccharomyces cerevisiae	0.662
GKDRPSRFNSKK [TEX1 C-terminal 12 aa]	Saccharomyces cerevisiae	0.667
MRIRSDMSMMRW [COR1 C-terminal 12 aa]	Saccharomyces cerevisiae	0.713
ELSDLENKLGKK [RCF1 C-terminal 12 aa]	Saccharomyces cerevisiae	0.699
MNEIDARIFEYK [SPO11 C-terminal 12 aa]	Saccharomyces cerevisiae	0.681
SGDIVAVIETLA [DUR12 C-terminal 12 aa]	Saccharomyces cerevisiae	0.571
EKSSVKRPCVKK [RKM4 C-terminal 12 aa]	Saccharomyces cerevisiae	0.701
QRTVKQEGNKGG [GZF3 C-terminal 12 aa]	Saccharomyces cerevisiae	0.7
FPQLNGLLRLQH [YPR014C C-terminal 12 aa]	Saccharomyces cerevisiae	0.681
AAAIAGAAALLL [DAN1 C-terminal 12 aa]	Saccharomyces cerevisiae	0.732
AGTLDGRLAIWY [BPH1 C-terminal 12 aa]	Saccharomyces cerevisiae	0.686
LHMNTNRLAGIR [SEC9 C-terminal 12 aa]	Saccharomyces cerevisiae	0.718
TPLGPKPDIRPL [ECM4 C-terminal 12 aa]	Saccharomyces cerevisiae	0.67
LSFADYRKKLLK [SET3 C-terminal 12 aa]	Saccharomyces cerevisiae	0.689
LLEAFLRKEQKV [YGR174W-A C-terminal 12 aa]	Saccharomyces cerevisiae	0.619
LESADKKKDVKA [DUS1 C-terminal 12 aa]	Saccharomyces cerevisiae	0.713
